Target: T1, LRRC7, Q96NW7
T1 sequence (Q96NW7 1440-1537, limits assumed, looked up): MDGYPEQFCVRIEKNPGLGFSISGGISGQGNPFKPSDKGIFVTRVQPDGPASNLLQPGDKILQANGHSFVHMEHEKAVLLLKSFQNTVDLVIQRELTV
Assay: holdup assay
Set-up: key: below the threshold = too weak to quantify, mostly under pKd 3.1 to 4
Conditions: plain residues with an end cap or a label only (N-terminal biotin on a linker: ttds)
Endpoint name: pKd

{"Binder": "SSIDLWETAL [SLC15A5, A6NIM6]", "Endpoint name": "pKd", "Result": 4.47}
{"Binder": "PSRDRKETSI [RALBP1, Q15311]", "Endpoint name": "pKd", "Result": "below the threshold"}
{"Binder": "DLDEEEDTHL [PODXL, O00592]", "Endpoint name": "pKd", "Result": "below the threshold"}
{"Binder": "NPDALPETLV [ARHGAP6, O43182]", "Endpoint name": "pKd", "Result": "below the threshold"}

Origin of the recorded values: paper PMC9482650
